- system: hCA IX (Homo sapiens)
- Construct: purchased
- protocol-summary: CA inhibition by the esterase assay, hCA IX
- Type: biochemical
- measurement-conditions: ratio of IC50 values
As shown below, each of these compounds has a reported Selectivity Ratio hCA I/hCA IX value.
A bare number is all that is needed in reply.

# example entries with known answers
# compound, measure-name, measured-result
rows = [
    ("O=c1ccc2ccc(OCc3cn([C@@H]4OC[C@@H](O)[C@H](O)[C@H]4O)nn3)cc2o1 [Compound 10e]", "Selectivity Ratio hCA I/hCA IX", 693),
    ("O=c1ccc2ccc(OCc3cn([C@@H]4OC[C@H](O)[C@H](O)[C@H]4O)nn3)cc2o1 [Compound 10f]", "Selectivity Ratio hCA I/hCA IX", 1562),
    ("Cc1cc(=O)oc2cc(OCc3cn([C@@H]4O[C@H](CO)[C@@H](O)[C@H](O)[C@H]4N)nn3)ccc12 [Compound 10l]", "Selectivity Ratio hCA I/hCA IX", 1778),
    ("O=c1ccc2ccc(OCc3cn([C@@H]4O[C@H](CO)[C@@H](O)[C@H]4O)nn3)cc2o1 [Compound 10h]", "Selectivity Ratio hCA I/hCA IX", 177),
    ("O=c1ccc2ccc(OCc3cn([C@@H]4O[C@H](CO)[C@H](O)[C@H](O)[C@H]4O)nn3)cc2o1 [Compound 10b]", "Selectivity Ratio hCA I/hCA IX", 328),
]

Prompt line: Provide the reported Selectivity Ratio hCA I/hCA IX (system: hCA IX (Homo sapiens)) for Cc1cc(=O)oc2cc(OCc3cn([C@@H]4O[C@H](CO)[C@H](O)[C@H](O)[C@H]4O)nn3)ccc12 [Compound 10j]
Response line: 450

Prompt line: Provide the reported Selectivity Ratio hCA I/hCA IX (system: hCA IX (Homo sapiens)) for O=c1ccc2ccc(OCc3cn([C@@H]4O[C@H](CO)[C@@H](O)[C@H](O)[C@@H]4O)nn3)cc2o1 [Compound 10c]
Response line: 1167

Prompt line: Provide the reported Selectivity Ratio hCA I/hCA IX (system: hCA IX (Homo sapiens)) for C[C@@H]1O[C@H](n2cc(COc3ccc4ccc(=O)oc4c3)nn2)[C@H](O)[C@H](O)[C@H]1O [Compound 10g]
Response line: 294

Prompt line: Provide the reported Selectivity Ratio hCA I/hCA IX (system: hCA IX (Homo sapiens)) for Cc1cc(=O)oc2cc(OCc3cn([C@@H]4O[C@H](CO)[C@@H](O)[C@H](O)[C@@H]4O)nn3)ccc12 [Compound 10k]
Response line: 1167
